Reference for the values: patent US20180009871A1

assayed_target: human glucagon receptor (GCGR) (human, UniProt P47871 26-477)
test_protocol: cell-based or functional assay
Where no end group is shown, it is not given here. [ ]: non-standard residue; d: D form. Formula III = not defined here; Formula II = not defined here; Aib = CC(C)(N)C(=O)O
experimental_readout: GluR pEC 50 (pEC50)
Reply numerically in pEC50, unit not repeated.

stdin: Report GluR pEC 50 for YSHGTFTSDYSKYLD[Aib]KRAQEFVIWLEDEPSSK(Formula III)APPPS-OH (reading uncertain) [Compound B29] please.
stdout: 9.8

stdin: Here is the next binder: WSQGTFTSDYSKYLD[Aib]KRAQEFV[Aib]WLEDEPSSK(Formula II)APPPS-OH (reading uncertain) [Compound B17]
stdout: 10.5

stdin: Next record, please: YSHGTFTSDYSKYLDSARAQEFVKWLEDEPSSK(Formula II)APPPS-NH2 (reading uncertain) [Compound B41]
stdout: 10.6

stdin: Okay, and YSHGTFTSDK(Formula III)SKYLD[Aib]KYAQEFV[Aib]WLEDEPSSGAPPPS-OH (reading uncertain) [Compound B8] ?
stdout: 10.6

stdin: Then what about the binder YSHGTFTSDK(Formula II)SKYLDSARAQEFVKWLEDEPSSGAPPPS-NH2 (reading uncertain) [Compound B44] ?
stdout: 11.9
